System: NCI-H460 cells
Assay: viability assay of CLIP cyclised peptides on NCI-H460 cells (Example 3, Table 2)
Type: cell-based, human
Conditions: No Nanocin-PRO; 96 h; 300 µM
For each record, write down the corresponding % inhibition at 300 μM.
One number for each entry, in %.

The cases that follow already have their % inhibition at 300 μM on record.
Compound	Outcome Measure	Endpoint Value
COc1ccc2c(C[C@@H]3NC(=O)[C@@H](NC(C)=O)CSCc4cccc(c4)CSC[C@@H](C(N)=O)NC(=O)CC(c4ccc5ccccc5c4)NC(=O)[C@H](CCCNC(=N)N)NC(=O)C4N(CCC4(C)C)C(=O)CN(C)C(=O)[C@H](CCCNC(=N)N)NC3=O)cc(=O)oc2c1 (single isomer, unassigned) [HILRa CL-15-D, Ac-C[Dac]R[Sar][dmPro]R[Nap]C-NH2]	% inhibition at 300 μM	25.2
COc1ccc2c(C[C@@H]3NC(=O)[C@@H](NC(C)=O)CSCc4cccc(c4)CSC[C@@H](C(N)=O)NC(=O)CC(c4ccc5ccccc5c4)NC(=O)[C@H](CCCNC(=N)N)NC(=O)C4N(CCC4(C)C)C(=O)CN(C)C(=O)[C@H](CCCNC(=N)N)NC3=O)cc(=O)oc2c1 (single isomer, unassigned) [HILRa CL-15-A, Ac-C[Dac]R[Sar][dmPro]R[Nap]C-NH2]	% inhibition at 300 μM	22.7

Proceeding to the next compound to report its % inhibition at 300 μM.
Exercise: Fill in: % inhibition at 300 μM of COc1ccc2c(C[C@@H]3NC(=O)[C@@H](NC(C)=O)CSCc4cccc(c4)CSC[C@@H](C(N)=O)NC(=O)CC(c4ccc5ccccc5c4)NC(=O)[C@H](CCCNC(=N)N)NC(=O)C4N(CCC4(C)C)C(=O)CN(C)C(=O)[C@H](CCCNC(=N)N)NC3=O)cc(=O)oc2c1 (single isomer, unassigned) [HILRa CL-15-B, Ac-C[Dac]R[Sar][dmPro]R[Nap]C-NH2] is ___
Solution: 20.2

###

For each record, write down the corresponding % inhibition at 300 μM.
Test system: NCI-H460 cells
Assay: viability assay of CLIP cyclised peptides on NCI-H460 cells (Example 3, Table 2)
Format: cell-based, human
Details: 0.2 μl Nanocin-PRO per well; 96 h; 300 µM
Give bare numbers, in %.

The cases that follow already have their % inhibition at 300 μM on record.
Molecule	Measurement Unit	% inhibition at 300 μM
COc1ccc2c(C[C@@H]3NC(=O)[C@@H](NC(C)=O)CSCc4cccc(c4)CSC[C@@H](C(N)=O)NC(=O)CC(c4ccc5ccccc5c4)NC(=O)[C@H](CCCNC(=N)N)NC(=O)C4N(CCC4(C)C)C(=O)CN(C)C(=O)[C@H](CCCNC(=N)N)NC3=O)cc(=O)oc2c1 (single isomer, unassigned) [HILRa CL-15-B, Ac-C[Dac]R[Sar][dmPro]R[Nap]C-NH2]	%	87.5
COc1ccc2c(C[C@@H]3NC(=O)[C@@H](NC(C)=O)CSCc4cccc(c4)CSC[C@@H](C(N)=O)NC(=O)CC(c4ccc5ccccc5c4)NC(=O)[C@H](CCCNC(=N)N)NC(=O)C4N(CCC4(C)C)C(=O)CN(C)C(=O)[C@H](CCCNC(=N)N)NC3=O)cc(=O)oc2c1 (single isomer, unassigned) [HILRa CL-15-D, Ac-C[Dac]R[Sar][dmPro]R[Nap]C-NH2]	%	89.1

Batch of 2 molecules: report % inhibition at 300 μM for each.
1. COc1ccc2c(C[C@@H]3NC(=O)[C@@H](NC(C)=O)CSCc4cccc(c4)CSC[C@@H](C(N)=O)NC(=O)CC(c4ccc5ccccc5c4)NC(=O)[C@H](CCCNC(=N)N)NC(=O)CC(c4ccc5ccccc5c4)NC(=O)CN(C)C(=O)[C@H](CCCNC(=N)N)NC3=O)cc(=O)oc2c1 (single isomer, unassigned) [HILRa CL-17-B, Ac-C[Dac]R[Sar][Nap]R[Nap]C-NH2]
2. COc1ccc2c(C[C@@H]3NC(=O)[C@@H](NC(C)=O)CSCc4cccc(c4)CSC[C@@H](C(N)=O)NC(=O)CC(c4ccc5ccccc5c4)NC(=O)[C@H](CCCNC(=N)N)NC(=O)CC(c4ccc5ccccc5c4)NC(=O)CN(C)C(=O)[C@H](CCCNC(=N)N)NC3=O)cc(=O)oc2c1 (single isomer, unassigned) [HILRa CL-17-C, Ac-C[Dac]R[Sar][Nap]R[Nap]C-NH2]

Solution:
99.3
99.4

###

For each record, write down the corresponding % inhibition at 300 μM.
Test system: NCI-H460 cells
Assay: viability assay of CLIP cyclised peptides on NCI-H460 cells (Example 3, Table 2)
Format: cell-based, human
Settings: No Nanocin-PRO; 96 h; 300 µM
Your reply should be a number followed by the unit it is expressed in.

Molecule	% inhibition at 300 μM
COc1ccc2c(C[C@@H]3NC(=O)[C@@H](NC(C)=O)CSCc4cccc(c4)CSC[C@@H](C(N)=O)NC(=O)CC(c4ccc5ccccc5c4)NC(=O)[C@H](CCCNC(=N)N)NC(=O)CC(c4ccc5ccccc5c4)NC(=O)CN(C)C(=O)[C@H](CCCNC(=N)N)NC3=O)cc(=O)oc2c1 (single isomer, unassigned) [HILRa CL-17-C, Ac-C[Dac]R[Sar][Nap]R[Nap]C-NH2]	99.6%
COc1ccc2c(C[C@@H]3NC(=O)[C@@H](NC(C)=O)CSCc4cccc(c4)CSC[C@@H](C(N)=O)NC(=O)CC(c4ccc5ccccc5c4)NC(=O)[C@H](CCCNC(=N)N)NC(=O)CC(c4ccc5ccccc5c4)NC(=O)CN(C)C(=O)[C@H](CCCNC(=N)N)NC3=O)cc(=O)oc2c1 (single isomer, unassigned) [HILRa CL-17-A, Ac-C[Dac]R[Sar][Nap]R[Nap]C-NH2]	90.3%
COc1ccc2c(C[C@@H]3NC(=O)[C@@H](NC(C)=O)CSCc4cccc(c4)CSC[C@@H](C(N)=O)NC(=O)CC(c4ccc5ccccc5c4)NC(=O)[C@H](CCCNC(=N)N)NC(=O)C4N(CCC4(C)C)C(=O)CN(C)C(=O)[C@H](CCCNC(=N)N)NC3=O)cc(=O)oc2c1 (single isomer, unassigned) [HILRa CL-15-C, Ac-C[Dac]R[Sar][dmPro]R[Nap]C-NH2]	23.8%

Proceeding to the next molecule to report its % inhibition at 300 μM.
Exercise: Quick check: % inhibition at 300 μM on NCI-H460 cells, item COc1ccc2c(C[C@@H]3NC(=O)[C@@H](NC(C)=O)CSCc4cccc(c4)CSC[C@@H](C(N)=O)NC(=O)CC(c4ccc5ccccc5c4)NC(=O)[C@H](CCCNC(=N)N)NC(=O)CC(c4ccc5ccccc5c4)NC(=O)CN(C)C(=O)[C@H](CCCNC(=N)N)NC3=O)cc(=O)oc2c1 (single isomer, unassigned) [HILRa CL-17-B, Ac-C[Dac]R[Sar][Nap]R[Nap]C-NH2] ?
Solution: 99.2%
